Target: T1, peptide from the N-terminal coiled-coil region of human ANGPTL3 (hANGPTL3 peptide, SEQ ID NO: 338) (human)
T1 construct: also called hANGPTL3 shift peptide
T1 peptide: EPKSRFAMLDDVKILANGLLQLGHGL
Experiment: SPR, captured mAb, 500 nM peptide, 25C
Let's look at some binders and their measured 500 nM hANGPTL3 peptide Bound (RU).
Reply numerically in RU, unit not repeated.

Binder	500 nM hANGPTL3 peptide Bound (RU)
H4H15330P (antibody, human IgG4, V domains shown, H4H prefix: human IgG4 Fc) VH: QVQLVESGGGLVKPGGSLRLSCAASGFTFSDYYMSWIRQAPGKGLEWISHISGSGRTTHYADSMKGRFTISRDNAKNSLYLQMNSLRAEDTAVYYCVREGGFNWNYEGTFDIWGQGTMVTVSS VL: DIVMTQTPLSSPVTLGQPASISCRSSQSLLHSDQNTYLSWLHQRPGQPPRLLIYKISNRFSGVPDRFSGSGAGTDFTLKISRVEAEDVGIYYCMQGTQFPLTFGGGTKVEIK	-1
H4H15314P2 (antibody, human IgG4, V domains shown, H4H prefix: human IgG4 Fc) VH: QVQLVQSGAEVKKPGASVKVSCKASGYTFTSYDINWVRQATGQGLEWMGWMNPNGDNTGYAQKFQGRVTMTGDTSISTAYMELSSLRSEDTAVYYCAREGIWGFDPWGQGTLVTVSS VL: DIQMTQSPSSLSASVGDRVTITCRASQDIRNDLGWYQQKPGKAPKRLIYAASSLQSGVPSRFSGSGSGTEFTLTISSLQPEDFATFYCLQHNTFPRTFGQGTKVEIK	0
H4H15346P (antibody, human IgG4, V domains shown, H4H prefix: human IgG4 Fc) VH: EVQLVESGGGLVQPGGSLRLSCAASGFTFSNYAMSWVRQAPGKGLEWVSTISDTGGSTYYADSVKGRFALSRDNSRNTLYLQMNSLRAEDTAVYYCAKEGPPDYWGQGTLVTVSS VL: EIVLTQSPATLSLSPGERATLSCRTSQSVSIYLAWYQQKPGQAPRLLIYDASKRATGIPARFSGRGSGTDFTLTISSLEPEDFAVYYCQQRSNWPLTFGQGTRLEIK	0

Entry H4H15334P (antibody, human IgG4, V domains shown, H4H prefix: human IgG4 Fc) VH: QVQLQESGPGLVKPSQTLSLTCTVSGGSINSGGYYWNWIRQHPGKGLEWIGYIYYSGSTYFNPSLKSRVTISIDTSKNQFSLKLSSVTAADTAVYYCAREGIYAFDYWGQGTLVTVSS VL: DIQMTQSPSSLSASVGDRVTITCRASQGIRNDLGWYQQKPGKAPKRLIYSASSLQSGVPSRFGGSGSGTEFTLTISSLQPEDFATYYCLQHNSYPWTFGQGTKVEIK : reported 500 nM hANGPTL3 peptide Bound (RU) = ?
0

Entry under review: H4H15341P (antibody, human IgG4, V domains shown, H4H prefix: human IgG4 Fc) VH: EVQLVESGGGLVQPGGSLRLSCAASGFTFNNHEMNWVRQAPGKGLEWVSYISSSGNTVTYADFLKGRFTISRDNAKNSLFLQMNSLRDEDTAVYYCARDHLSGTSPLSYWGQGTLVTVSS VL: DIQMTQSPSSLSASVGDRVTITCQASQDINNYLNWFQQKPGKAPKLLIFDASNLETGVPSRFSGSGSGTDFTFTISSLQPEDIATYFCQQYENLPYTFGQGTKLEIK . Reported 500 nM hANGPTL3 peptide Bound (RU)?
0

Find the recorded 500 nM hANGPTL3 peptide Bound (RU) belonging to H4H15318P (antibody, human IgG4, V domains shown, H4H prefix: human IgG4 Fc) VH: QVQLVESGGGVVQPGRSLRLSCTASGFTFGNFGIHWVRQAPGKGLEWVAVISYDGTDKFYADPVKGRFIISRDNSMNILYLQMNSLRAEDTAVYYCAKDGEMELRGYYYYYGMDVWGQGTTVTVSS VL: DIQMTQSPSSVSASVGDRVTITCRASQGINTWLAWYQQKPGTAPKLLIFAASSLESGVPSRFSGSGFGTDFTLTISSLQSEDLATYFCQQVHSPPYTFGQGTKLEIK and report it.
0
